IC50: recorded values
System: IL-17 production by CD4 T cells
Assay: Human Th17 assay (IL-17 production by CD4 T cells under Th17 differentiation)
Format: cell-based
Conditions: human CD4+ T cells, IL-17 after 3 days; read-out: Human Th17 Assay, IC50 μM
propertyLabel: IC50 (µM)

| compound | propertyLabel | assayResult |
| --- | --- | --- |
| COc1nc2ccc(C(O)(c3ccc(C#N)cc3)c3cncn3C)cc2c(C#N)c1Cc1ccc(C(F)(F)F)cc1 (single isomer, unassigned) [Example 96C] | IC50 | 0.0045 |
| COc1nc2ccc(C(O)(c3ccc(C)nc3C)c3cnnn3C)cc2c(Cl)c1Cc1ccc(C(F)(F)F)cc1 (single isomer, unassigned) [Example 77B] | IC50 | 0.36 |
| COc1nc2ccc(C(O)(c3ccc(C(F)(F)F)nc3)c3cncn3C)cc2c(Cl)c1Cc1cc2ccccc2s1 (single isomer, unassigned) [Example 37C] | IC50 | 0.15 |
| COc1nc2c(C)cc(C(O)(c3ccc(C(F)(F)F)nc3)c3cncn3C)cc2c(Cl)c1Cc1ccc(-n2cccn2)cc1 (single isomer, unassigned) [Example 29C] | IC50 | 0.09 |
| Cc1cc(C(O)(c2ccc(Cl)cc2)c2cncn2C)cc2c(Cl)c(Cc3ccc(-n4cccn4)cc3)c(Cl)nc12 (stereo not shown) | IC50 | 0.3 |
| COc1nc2ccc(C(O)(c3cnnn3C)c3cnc(C)n3C)cc2c(C#N)c1Cc1ccc(C(F)(F)F)cc1 (single isomer, unassigned) [Example 81C] | IC50 | 0.002 |
| COc1nc2ccc(C(O)(c3cnnn3C)c3cnc(C)n3C)cc2c(Cl)c1Cc1ccc(C(F)(F)F)cc1 (single isomer, unassigned) [Example 80B] | IC50 | 0.05 |
| CCc1nc2ccc(C(O)(c3cnnn3C)C3CN(S(C)(=O)=O)C3)cc2c(Cl)c1Cc1ccc(C(F)(F)F)cc1 (single isomer, unassigned) [Example 91C] | IC50 | 0.0025 |
| COc1nc2ccc(C(O)(c3ccccc3)C3CCN(C(C)=O)CC3)cc2c(Cl)c1Cc1ccc(-n2cccn2)cc1 (single isomer, unassigned) [Example 83C] | IC50 | 0.12 |
| Cn1cncc1C(O)(c1ccc(C(F)(F)F)nc1)c1ccc2nc(N3CCC3)c(Cc3ccc(C(F)(F)F)cc3)c(Cl)c2c1 (single isomer, unassigned) [Example 92B] | IC50 | 0.034 |
| Cn1cncc1C(O)(c1ccc(C(F)(F)F)nc1)c1ccc2nc(N3CCC3)c(Cc3ccc(C(F)(F)F)cc3)c(Cl)c2c1 (single isomer, unassigned) [Example 92C] | IC50 | 0.0086 |
| COc1nc2ccc(C(O)(c3ccc(C(F)(F)F)nc3)c3cncn3C)cc2c(C#N)c1Cc1ccc(-n2cccn2)cc1 (single isomer, unassigned) [Example 73C] | IC50 | 0.13 |
| COc1nc2ccc(C(O)(c3ccc(C(F)(F)F)nc3)c3cncn3C)cc2c(Cl)c1Cc1ccc(C(F)(F)F)nc1 (single isomer, unassigned) [Example 94C] | IC50 | 0.048 |
| COc1nc2ccc(C(O)(c3ccccc3)C3CCN(C(C)=O)CC3)cc2c(Cl)c1Cc1ccc(-n2cccn2)cc1 (single isomer, unassigned) [Example 83B] | IC50 | 0.016 |
| COc1ccc(C(O)(c2ccc3nc(OC)c(Cc4ccc(-n5cccn5)cc4)c(Cl)c3c2)c2cncs2)cn1 (single isomer, unassigned) [Example 20C] | IC50 | 0.069 |
| CCc1nc2ccc(C(O)(c3cnnn3C)C3CN(S(C)(=O)=O)C3)cc2c(Cl)c1Cc1ccc(C(F)(F)F)cc1 (single isomer, unassigned) [Example 91B] | IC50 | 0.022 |
| Cn1cncc1C(O)(c1ccc(C(F)(F)F)nc1)c1ccc2nc(N3CCC3)c(Cc3ccc(-n4cccn4)cc3)c(Cl)c2c1 (single isomer, unassigned) [Example 68C] | IC50 | 0.2 |
| COc1nc2ccc(C(O)(c3ccc(C(F)(F)F)nc3)c3cncn3C)cc2c(C#N)c1Cc1ccc(-n2cccn2)cc1 (single isomer, unassigned) [Example 73B] | IC50 | 0.02 |
| Cc1cc(C(O)(c2ccc(C(F)(F)F)nc2)c2cncn2C)cc2c(C#N)c(Cc3ccc(-n4cccn4)cc3)c(C#N)nc12 (single isomer, unassigned) [Example 65B] | IC50 | 0.22 |
| Cc1cc(C(O)(c2ccc(C(F)(F)F)nc2)c2cncn2C)cc2c(C#N)c(Cc3ccc(-n4cccn4)cc3)c(C#N)nc12 (single isomer, unassigned) [Example 65C] | IC50 | 0.045 |
| CON(C)c1nc2ccc(C(O)(c3ccc(C(F)(F)F)nc3)c3cncn3C)cc2c(Cl)c1Cc1ccc(-n2cccn2)cc1 (single isomer, unassigned) [Example 67C] | IC50 | 0.1 |
| CCc1nc2ccc(C(O)(c3cnnn3C)C3CN(C(C)=O)C3)cc2c(Cl)c1Cc1ccc(C(F)(F)F)cc1 (single isomer, unassigned) [Example 90C] | IC50 | 0.0061 |

The reported numbers originate from patent US9290476B2.
